# Test system: E coli carrying specific resistance determinants
# protocol_summary: MIC by broth microdilution, E coli carrying specific resistance determinants
# Type: cell-based
# experimental_conditions: Escherichia coli, read-out: MIC pH422 E. coli APH(3′)-II
Structures can show the parent of a compound that is named as a salt.
MIC values by entry
readout_type: MIC

[
  {
    "molecule": "NC[C@@H]1O[C@H](O[C@@H]2C(O)[C@H](O[C@@H]3C(O)[C@H](N)CC(N)[C@H]3O[C@H]3OC(CO)[C@@H](O)[C@H](O)C3N)O[C@@H]2CNC=O)C(N)C(O)[C@@H]1O (stereo partly drawn) [Compound 137, acetate salt]",
    "value_measured": "> 64 µg/mL"
  },
  {
    "molecule": "NCC1OC(OC2C(N)CC(N)C(O)C2OC2OC(CNC=O)C(O)C2O)C(N)C(O)C1O (stereo not drawn)",
    "value_measured": "> 64 µg/mL"
  },
  {
    "molecule": "NC[C@H]1O[C@H](O[C@H]2[C@H](O[C@@H]3O[C@H](CO)[C@@H](O)[C@H]3O)[C@@H](O)[C@H](N)C[C@@H]2N)[C@H](N)[C@@H](O)[C@@H]1O [Ribostamycin, ribostamycin, reference compound]",
    "value_measured": "128 to 256 µg/mL"
  }
]

Taken from patent US11466044B2.
